meta.source: PubChem BioAssay (NCI)

System: 786-0 renal
Experiment: NCI tumour cell line growth inhibition, 48 h
endpoint.label: TGI

Worked examples, 5 compounds total:
compound	TGI
Cc1nn(-c2ccccc2)c2c1[C@@H](C)[C@H]1CC3(CC4(C)C[C@@H]3C1(C)c1c(C)nn(-c3ccccc3)c1N4C)N2C (some centres undefined)	> 100 µM
COC(=O)[C@@H](C)C[C@H](Cc1ccccc1)NC(=O)c1nc([C@@H](C[C@H](C(C)C)N(C)C(=O)[C@@H](NC(=O)[C@H]2CC(=O)CCN2C)C(C)C)OC(C)=O)sc1C(C)C	8.82 µM
Nc1nc(-c2ccccn2)c(-c2ccc3ncccc3n2)s1	> 25 µM
COc1cc(N(CCC#N)CCC#N)ccc1/C(N=Nc1cccc([N+](=O)[O-])c1)=N\NC(=O)c1ccc(C)cc1	> 100 µM
COc1ccc(Cc2nc3cc(C(F)(F)F)ccc3n2C[C@@H]2CCCN3CCCCC23)cc1 (some centres undefined)	20.3 µM

// next item, TGI requested
For reference, reported TGI for `CCc1ccc2cc3c(ccc4ccccc43)c3c2c1CC3` stands at > 100 µM

---

Test system: SNB-75 CNS
Experiment: NCI tumour cell line growth inhibition, 48 h
Entries and their TGI values follow.

                                   compound  endpoint_label    result
0    CCc1cccc(CC)c1NC1=CC(=O)C(=O)c2ccccc21             TGI   49.3 µM
1  NS(=O)(=O)c1ccc(NNc2c3ccccc3nc3c(C(=O)Nc4ccc(S(N)(=O)=O)cc4)cccc23)cc1             TGI  > 100 µM

// next item, TGI requested
For reference, reported TGI for N#CC1(C2CC(=O)N(c3ccccc3)C2=O)CCCCC1=O (stereo not drawn) stands at > 100 µM

---

Tested on: KM12 colon
Test: NCI tumour cell line growth inhibition, 48 h
endpoint.label: TGI

molecule	target.or.test.system	result
CCOC(=O)c1c2ccccc2n2c(=O)n(-c3ccccc3)nnc12	KM12 colon	> 100 µM

For reference, reported TGI for CC1(C)OC2OC(/C=C/[N+](=O)[O-])C3OC(C)(C)OC3C2O1 (centres undefined) stands at 31.5 µM

For reference, reported TGI for COC(=O)[C@@H](N1C(=O)c2ccccc2C1=O)C1(C)CC(Cl)=NO1 (some centres undefined) stands at > 100 µM

For reference, reported TGI for N#CC1(C2CC(=O)N(c3ccccc3)C2=O)CCCCC1=O (centres undefined) stands at > 100 µM

For reference, reported TGI for CCCCP1(=O)C=CC(Cl)=C(C)C1 (centres undefined) stands at > 100 µM

For reference, reported TGI for `COC(=O)[C@]1(CCC(C)=O)C(=O)C=CN([C@H](C)c2ccccc2)[C@@H]1Cc1ccc(OC)c(OCc2ccccc2)c1I` stands at 43.1 µM

For reference, reported TGI for CC(=O)OCC1OC(NC(=S)Nn2c(-c3ccccc3)nc3ccccc3c2=O)C(OC(C)=O)C(OC(C)=O)C1OC(C)=O (centres undefined) stands at > 100 µM

---

System: SK-MEL-5 melanoma
Assay: NCI tumour cell line growth inhibition, 48 h; in the data active = GI50 below about 0.43 µM; inactive = the rest
Please state which outcome applies, choosing from active, inactive

Ask | Assay outcome for `COc1cc(-c2nn(-c3cccc(NC(=O)NCCNC(=O)c4ccccc4)c3)cc2-c2ccncc2)ccc1Cl` : what was it?
Reply | inactive
